Test system: TK-10 renal
test-name: NCI-60 one-dose screen, 48 h (100 = growth as untreated, 0 = no growth, -100 = all killed)
reported-conditions: 10 µM unless noted
The panel holds about 83,000 compounds, 20% with a hit somewhere; the sample as a whole holds those more often.
Readings of growth for the listed compounds
Just the number please, in %, no unit attached.

Look over these answered cases.
[[record]]
compound = "COC12c3c(C)cc(O)c4c(=O)occ(c34)C(=O)C1C13COC(=O)c4c(O)cc(C)c(c41)C(=O)C2C3OC(C)=O (configuration not stated)"
experimental_result = 110

[[record]]
compound = "COS(=O)(=O)c1ccccc1"
experimental_result = 104

[[record]]
compound = "COc1cc(/C=C/[N+](=O)[O-])cc(Br)c1OC"
experimental_result = -38.1

[[record]]
compound = "N#CCc1ccccc1"
experimental_result = 108

[[record]]
compound = "CCOP(=O)(OCC)/C(C#N)=C/c1ccc(Br)cc1"
experimental_result = 104

[[record]]
compound = "COC1CC2C=C(C)/C=C/C=C/C(=O)NC(c3ccccc3)C/C=C/CCC(O)CC(=O)C2=C1O (configuration not stated)"
experimental_result = -59.9

[[record]]
compound = "O=[P+](O)c1ccccc1"
experimental_result = 117

[[record]]
compound = "O=[N+]([O-])c1cc[n+]([O-])c2ccccc12"
experimental_result = -22.6


growth for [Cl][Sn]([c]1ccccc1)([c]1ccccc1)[c]1ccccc1 is -92.7

growth for CC(Cc1ccc2c(c1)OCO2)NN (configuration not stated) is 93

growth for COc1cc([N+](=O)[O-])c2ncccc2c1[N+](=O)[O-] is 27.1

growth for CC(=O)[O][Hg][c]1c(C)c(C)cc(C)c1C is -82.6

----------
Tested on: ACHN renal
test-name: NCI-60 one-dose screen, 48 h (100 = growth as untreated, 0 = no growth, -100 = all killed)
reported-conditions: 10 µM
About 83,000 compounds went through this panel and 20% of them were active in at least one assay; those are over-represented in the sample as a whole.
Readings of growth for the listed molecules
Just the number please, in %, no unit attached.

[[record]]
molecule = "[Cl][Hg][c]1ccc2ccccc2c1"
tested_on = "ACHN renal"
experimental_result = -85.5

[[record]]
molecule = "Cc1cc(C(C)(C)c2ccc(O)c(C)c2)ccc1O"
tested_on = "ACHN renal"
experimental_result = 88.7

[[record]]
molecule = "CCCCCCCC[N+]12CN3CN(CN(C3)C1)C2"
tested_on = "ACHN renal"
experimental_result = 99.5

[[record]]
molecule = "NC(=O)c1cc([N+](=O)[O-])c(Cl)c([N+](=O)[O-])c1"
tested_on = "ACHN renal"
experimental_result = 92.7


growth for COC(C(=O)C(O)C(C)O)C1Cc2cc3cc(OC4CC(OC(C)=O)C(OC5CC(O)C(OC)C(C)O5)C(C)O4)cc(O)c3c(O)c2C(=O)C1OC1CC(OC2CC(OC3CC(C)(O)C(OC(=O)C(C)C)C(C)O3)C(O)C(C)O2)C(O)C(C)O1 (stereo unspecified) is 3.27

growth for O=[N+]([O-])c1ccc(Br)c([N+](=O)[O-])c1 is 52.6

----------
Test system: EKVX NSCLC
test-name: NCI-60 one-dose screen, 48 h (100 = growth as untreated, 0 = no growth, -100 = all killed)
reported-conditions: 10 µM
The panel holds about 83,000 compounds, 20% with a hit somewhere; the sample as a whole holds those more often.
Please enter yes where growth is greater than or equal to 90%, and no where it is lower.

[[record]]
compound = "O=[N+]([O-])c1ccc(Br)c([N+](=O)[O-])c1"
group = "yes"


*Q* Assess whether reported growth for C#CC1(O)CCC(C(C)(C)C)CC1 (centres undefined) sits at 90% or higher.
*A* yes

*Q* Assess whether reported growth for CC12OOC(c3ccccc31)c1c2ccc2ccccc12 (centres undefined) sits at 90% or higher.
*A* no

*Q* Assess whether reported growth for O=[N+]([O-])c1ccc(N(CCO)CCO)c2c1no[n+]2[O-] sits at 90% or higher.
*A* no

*Q* Assess whether reported growth for Oc1ccccc1-c1ccccc1 sits at 90% or higher.
*A* yes

*Q* Assess whether reported growth for CC(=O)Nc1c2sscc-2n(C)c1=O sits at 90% or higher.
*A* no

*Q* Assess whether reported growth for [Cl][Hg][c]1ccc(Cl)s1 sits at 90% or higher.
*A* no

*Q* Assess whether reported growth for CC[C@@]1(O)C[C@H](OC2CC(N(C)C)C(O)C(C)O2)c2c(cc3c(c2O)C(=O)c2c(O)ccc(O)c2C3=O)[C@H]1C(=O)OC (some centres undefined) sits at 90% or higher.
*A* no

*Q* Assess whether reported growth for O=[N+]([O-])/C=C\c1ccc2c(c1)OCO2 sits at 90% or higher.
*A* yes

*Q* Assess whether reported growth for CS(=N)(=O)CCC(N)C(=O)O (centres undefined) sits at 90% or higher.
*A* yes

*Q* Assess whether reported growth for O=C1CCC(=O)N1SC(Cl)(Cl)Cl sits at 90% or higher.
*A* yes

*Q* Assess whether reported growth for COc1cc([N+](=O)[O-])c2ncccc2c1[N+](=O)[O-] sits at 90% or higher.
*A* yes

*Q* Assess whether reported growth for O=[N+]([O-])/C=C/c1ccc(Cl)cc1[N+](=O)[O-] sits at 90% or higher.
*A* no

----------
Test system: SK-MEL-2 melanoma
test-name: NCI-60 one-dose screen, 48 h (100 = growth as untreated, 0 = no growth, -100 = all killed)
reported-conditions: 10 µM
Compounds without any hit were thinned out: in the full panel of roughly 83,000, 20% have a hit. Activity calls are given as the source filed them. How the source made its calls: active means growth percent below 10; inactive means the rest.
attribute-measured: growth

Look over these answered cases.
[[record]]
line_notation = "O=C(CBr)Nc1ccccc1"
experimental_result = "97% (inactive)"

[[record]]
line_notation = "CC/C(=C/c1ccc(OC)cc1OC)[N+](=O)[O-]"
experimental_result = "34.4% (inactive)"

[[record]]
line_notation = "COS(=O)(=O)c1ccccc1"
experimental_result = "101% (inactive)"


The compound COc1ccc(/C=C(\C)[N+](=O)[O-])cc1OC , tested on SK-MEL-2 melanoma, showed growth of 21.4% (inactive)

The compound [Cl][Sn]([c]1ccccc1)([c]1ccccc1)[c]1ccccc1 , tested on SK-MEL-2 melanoma, showed growth of -62.9% (active)

The compound [Cl][Hg][c]1ccc(Cl)s1 , tested on SK-MEL-2 melanoma, showed growth of 64.3% (inactive)

The compound O=[N+]([O-])c1ccc(Br)c([N+](=O)[O-])c1 , tested on SK-MEL-2 melanoma, showed growth of 96.8% (inactive)

----------
Tested on: 786-0 renal
test-name: NCI-60 one-dose screen, 48 h
reported-conditions: 10 µM
Protocol: Cells are grown in 96 well plates and exposed to the test compound for 48 hours. Compounds are tested at a single concentration, which is 10^-5 M for most compounds. The reported endpoint is percent growth (GI% or GIPRCNT), where numbers from 0 - 100% represent growth inhibition, and numbers from -100% - 0 represent cell death. For example, a value of 40 represents 60% growth inhibition. A value of 0 means no net growth occurred over the course of the experiment. […]
Compounds without any hit were thinned out: in the full panel of roughly 83,000, 20% have a hit. Active and inactive are the calls of the source. The calls were made as follows: active = growth percent below 10; inactive = the rest.
Pick one: active, inactive

Some entries whose results are on file:
[[record]]
compound = "O=C(CBr)Nc1ccc(Cl)cc1"
tested_on = "786-0 renal"
group = "inactive"

[[record]]
compound = "S=C=NCCc1ccccc1"
tested_on = "786-0 renal"
group = "inactive"

[[record]]
compound = "O=[N+]([O-])/C=C\\c1ccc2c(c1)OCO2"
tested_on = "786-0 renal"
group = "inactive"

[[record]]
compound = "O=[N+]([O-])c1ccc(Br)c([N+](=O)[O-])c1"
tested_on = "786-0 renal"
group = "inactive"

[[record]]
compound = "Cc1ccc(NC(=O)CBr)cc1"
tested_on = "786-0 renal"
group = "inactive"

[[record]]
compound = "O=C(O)c1cc(Cc2ccc(O)c(C(=O)O)c2)ccc1O (tested in a mixture with another compound)"
tested_on = "786-0 renal"
group = "inactive"

[[record]]
compound = "COc1ccc2c(ccc3oc([N+](=O)[O-])cc32)c1"
tested_on = "786-0 renal"
group = "active"

[[record]]
compound = "O=C(CBr)Nc1ccccc1"
tested_on = "786-0 renal"
group = "inactive"


*Q* What outcome does the record of this test show for COc1cc2c(c(OC)c1OC)-c1ccc(O)c(=O)cc1[C@@H](NC(C)=O)CC2 ?
*A* inactive

*Q* What outcome does the record of this test show for Oc1ccccc1-c1ccccc1 ?
*A* inactive

*Q* What outcome does the record of this test show for COc1ccc(/C=C(\C)[N+](=O)[O-])cc1OC ?
*A* active

*Q* What outcome does the record of this test show for O=[N+]([O-])c1ccc(N2CCOCC2)c2c1no[n+]2[O-] ?
*A* active

*Q* What outcome does the record of this test show for Cc1cc(C)c(C[N+](C)(C)C)c(C)c1C ?
*A* active

*Q* What outcome does the record of this test show for O=C1C(=O)c2ccccc2-c2ccccc21 ?
*A* active

*Q* What outcome does the record of this test show for COc1ccccc1[As]=[As]c1ccccc1OC (centres undefined) ?
*A* active

// data source = PubChem BioAssay (NCI)
